# target-desc: gastrin receptor (gastric glands) (Cavia porcellus, UniProt H0VZC5)
# Construct: The washed guinea pig gastric glands prepared as above were resuspended in 25 ml of standard buffer; from tissue; host or cells: isolated guinea pig gastric mucosal glands (collagenase-dispersed)
# Sequence (H0VZC5 1-426): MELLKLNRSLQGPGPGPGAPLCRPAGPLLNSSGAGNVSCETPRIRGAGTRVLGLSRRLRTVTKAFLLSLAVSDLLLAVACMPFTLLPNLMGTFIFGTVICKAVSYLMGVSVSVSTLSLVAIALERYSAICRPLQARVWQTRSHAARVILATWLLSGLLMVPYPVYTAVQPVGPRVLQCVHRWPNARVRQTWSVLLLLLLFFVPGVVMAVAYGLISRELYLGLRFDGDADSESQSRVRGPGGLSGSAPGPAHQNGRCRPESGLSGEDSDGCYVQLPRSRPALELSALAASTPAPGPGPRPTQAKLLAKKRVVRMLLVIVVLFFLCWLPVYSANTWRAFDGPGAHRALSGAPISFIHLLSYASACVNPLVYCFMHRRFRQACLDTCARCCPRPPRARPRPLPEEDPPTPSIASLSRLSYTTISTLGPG
# experimental-protocol: Gastrin Receptor Binding in Guinea Pig Gastric Glands
Kindly apply the following: yes if IC50 is less than 9 nM, no in every other case.

>  <compound>
Cc1cccc(NC(=O)NC2N=C(c3ccccc3)c3ccccc3N(CCO)C2=O)c1 (stereo not drawn)

>  <class>
yes

$$$$

Check if IC50 falls below 9 nM for COc1cccc(NC(=O)NC2N=C(c3ccccc3)c3ccccc3N(CCN(C)C)C2=O)c1 (stereo not drawn) .
no

# check: IC50 < 9 nM for CN1C(=O)C(NC(=O)Nc2ccc(N)nc2)N=C(c2ccccc2)c2ccccc21 (racemic)
no

Does Cc1cccc(NC(=O)N[C@@H]2N=C(c3ccccc3)c3ccccc3N(C)C2=O)c1 have IC50 strictly under 9 nM?
yes

---

# target-desc: CCK receptor (pancreas) (Rattus norvegicus, UniProt P30551)
# Construct: The whole pancreas was dissected free of fat tissue and was homogenized; from tissue; host or cells: rat whole pancreas membrane homogenate
# Sequence (P30551 whole entry): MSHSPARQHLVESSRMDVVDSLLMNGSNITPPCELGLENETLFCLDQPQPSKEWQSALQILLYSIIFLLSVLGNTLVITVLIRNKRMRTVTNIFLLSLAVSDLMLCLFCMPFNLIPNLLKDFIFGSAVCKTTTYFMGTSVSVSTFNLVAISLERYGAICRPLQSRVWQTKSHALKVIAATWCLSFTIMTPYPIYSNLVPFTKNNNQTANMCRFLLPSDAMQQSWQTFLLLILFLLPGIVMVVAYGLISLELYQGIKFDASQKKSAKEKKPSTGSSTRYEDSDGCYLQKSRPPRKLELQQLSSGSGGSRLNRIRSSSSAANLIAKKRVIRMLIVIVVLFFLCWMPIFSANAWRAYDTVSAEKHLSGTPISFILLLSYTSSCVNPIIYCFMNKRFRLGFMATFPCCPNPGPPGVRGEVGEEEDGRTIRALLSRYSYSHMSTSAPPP
# experimental-protocol: CCK Receptor Binding (Pancreas), inhibition of 125I-CCK-33 binding
Classes by IC50: I = under 2 nM, II = from 2 nM up to 50 nM, III = 50 nM and over

Below, 6 compounds whose answers are already recorded.
>  <compound>
COc1cccc(NC(=O)NC2N=C(c3ccccc3)c3ccccc3N(CCN(C)C)C2=O)c1 (stereo not drawn) [Example 18]

>  <class>
III

$$$$
>  <compound>
Cc1cccc(NC(=O)NC2N=C(c3ccccc3)c3ccccc3N(CCO)C2=O)c1 (stereo not drawn) [Example 17]

>  <class>
III

$$$$
>  <compound>
CN1C(=O)C(NC(=O)c2cc3cc(OCC(=O)O)ccc3[nH]2)N=C(c2ccccc2)c2ccccc21 (stereo not drawn) [Example 16]

>  <class>
II

$$$$
>  <compound>
CN1C(=O)[C@@H](NC(=O)c2cc3ccccc3n2CC(=O)O)N=C(c2ccccc2)c2ccccc21 [Example 6]

>  <class>
I

$$$$
>  <compound>
CCOC(=O)c1cccc(NC(=O)N[C@@H]2N=C(c3ccccc3)c3ccccc3N(C)C2=O)c1 [Example 19]

>  <class>
II

$$$$
>  <compound>
O=C(NC1N=C(c2ccccc2)c2ccccc2N(CCO)C1=O)c1cc2ccccc2[nH]1 (racemic) [Example 12]

>  <class>
II

$$$$

Sort CN1C(=O)[C@@H](NC(=O)c2cc3ccccc3n2CCCC(=O)O)N=C(c2ccccc2)c2ccccc21 [Example 7] into one of the categories.
I

# classify by IC50 band: CN1C(=O)C(NC(=O)Nc2cc3c(cn2)[nH]c2ccccc23)N=C(c2ccccc2)c2ccccc21 (racemic) [Example 13]
II
